Target: D(2) dopamine receptor (Homo sapiens, UniProt P14416)
Sequence (P14416 whole entry): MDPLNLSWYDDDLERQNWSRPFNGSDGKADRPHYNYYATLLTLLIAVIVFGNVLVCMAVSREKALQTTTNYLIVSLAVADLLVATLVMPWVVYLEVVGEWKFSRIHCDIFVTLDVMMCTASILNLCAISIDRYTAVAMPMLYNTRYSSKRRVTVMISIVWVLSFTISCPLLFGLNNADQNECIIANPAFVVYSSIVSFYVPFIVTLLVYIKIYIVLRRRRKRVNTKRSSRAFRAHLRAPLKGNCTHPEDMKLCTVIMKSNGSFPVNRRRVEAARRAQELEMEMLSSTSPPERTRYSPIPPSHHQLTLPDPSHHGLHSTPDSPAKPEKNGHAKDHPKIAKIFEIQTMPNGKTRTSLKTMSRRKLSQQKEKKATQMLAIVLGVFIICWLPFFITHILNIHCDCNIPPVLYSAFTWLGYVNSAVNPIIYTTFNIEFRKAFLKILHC
Response field label: string, one of condition met (Ki strictly below 100 nM) or condition not met.

Example entries and their recorded answers appear below.
CCCCN1CCN(c2cccc(CC)c2Cl)CC1    condition met
CCc1cccc(N2CCNCC2)c1Cl    condition not met
CCc1cccc(N2CCN(C)CC2)c1Cl    condition met
CCc1cc(Cl)c(OC)c(N2CCN(C)CC2)c1    condition not met
CCCCN1CCN(c2cc(CC)cc(Cl)c2OC)CC1    condition met

Attention now turns to another entry.
query: Quick check: does "CCc1cc(Cl)c(OC)c(N2CCNCC2)c1" have Ki under 100 nM?
result: condition not met

---

Target: D(3) dopamine receptor (Homo sapiens, UniProt P35462)
Sequence (P35462 whole entry): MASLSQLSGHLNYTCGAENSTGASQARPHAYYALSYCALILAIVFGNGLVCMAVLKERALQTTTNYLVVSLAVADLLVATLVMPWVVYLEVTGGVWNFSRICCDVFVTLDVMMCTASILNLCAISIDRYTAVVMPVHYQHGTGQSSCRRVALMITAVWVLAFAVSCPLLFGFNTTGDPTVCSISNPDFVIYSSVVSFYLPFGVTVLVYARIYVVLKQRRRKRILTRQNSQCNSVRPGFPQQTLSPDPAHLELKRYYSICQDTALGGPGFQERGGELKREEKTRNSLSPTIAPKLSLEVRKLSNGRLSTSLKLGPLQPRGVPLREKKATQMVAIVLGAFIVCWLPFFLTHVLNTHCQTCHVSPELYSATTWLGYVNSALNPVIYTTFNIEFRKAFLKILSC
Test: Agonist activity at human dopamine D3 receptor expressed in CHO cells assessed as stimulation of mitogenesis incubated for 16 hrs in presence of [3H]thymidine by scintillation spectrometric analysis
Format: cell-based
Parameters: concentration or dose not given beside the values
observed-property: Activity (%)
Unit % implied. Number only.

Use these answered entries as a reference point.
CCc1cc(Cl)c(OC)c(N2CCN(CC(O)CCNC(=O)c3cc4ccccc4[nH]3)CC2)c1 (configuration not stated)    6.7
CCc1cccc(N2CCNCC2)c1Cl    64.7

query: Test system D(3) dopamine receptor (Homo sapiens, UniProt P35462); read-out Activity; what value for "CCc1cc(Cl)c(OC)c(N2CCN(C)CC2)c1" ?
result: 15.2

query: Test system D(3) dopamine receptor (Homo sapiens, UniProt P35462); read-out Activity; what value for CCc1cccc(N2CCN(CC(O)CCNC(=O)c3cc4ccccc4o3)CC2)c1Cl (configuration not stated) ?
result: 22.3

query: Report Activity for "CCCCN1CCN(c2cccc(CC)c2Cl)CC1" tested on D(3) dopamine receptor (Homo sapiens, UniProt P35462).
result: 29.1

query: What is its Activity for D(3) dopamine receptor (Homo sapiens, UniProt P35462)? Entry: "CCc1cc(Cl)c(OC)c(N2CCN(CCCCNC(=O)c3cc4ccccc4o3)CC2)c1"
result: 4.9

query: Give the reported Activity for "CCc1cc(Cl)c(OC)c(N2CCN(CCCCNC(=O)c3cc4ccccc4[nH]3)CC2)c1" (system: D(3) dopamine receptor (Homo sapiens, UniProt P35462)).
result: 5.8

query: Lab request: please report Activity under test system D(3) dopamine receptor (Homo sapiens, UniProt P35462) for "CCc1cccc(N2CCN(CCCCNC(=O)c3cc4ccccc4[nH]3)CC2)c1Cl"
result: 42.3

query: Enter reported Activity observed with D(3) dopamine receptor (Homo sapiens, UniProt P35462) for "CCCCN1CCN(c2cc(CC)cc(Cl)c2OC)CC1"
result: 17.2

query: Form: Entry = CCc1cc(Cl)c(OC)c(N2CCN(CC(O)CCNC(=O)c3cc4ccccc4o3)CC2)c1 (configuration not stated) | System = D(3) dopamine receptor (Homo sapiens, UniProt P35462) | Activity = ____
result: 3.6

query: What Activity appears in the records for this compound with D(3) dopamine receptor (Homo sapiens, UniProt P35462)? "CCc1cccc(N2CCN(CCCCNC(=O)c3cc4ccccc4o3)CC2)c1Cl"
result: 31.2

query: Entry "CCc1cccc(N2CCN(C)CC2)c1Cl" , system D(3) dopamine receptor (Homo sapiens, UniProt P35462): what Activity was measured?
result: 69.2

---

Target: 5-hydroxytryptamine receptor 1A (Homo sapiens)
Sequence (P08908 whole entry): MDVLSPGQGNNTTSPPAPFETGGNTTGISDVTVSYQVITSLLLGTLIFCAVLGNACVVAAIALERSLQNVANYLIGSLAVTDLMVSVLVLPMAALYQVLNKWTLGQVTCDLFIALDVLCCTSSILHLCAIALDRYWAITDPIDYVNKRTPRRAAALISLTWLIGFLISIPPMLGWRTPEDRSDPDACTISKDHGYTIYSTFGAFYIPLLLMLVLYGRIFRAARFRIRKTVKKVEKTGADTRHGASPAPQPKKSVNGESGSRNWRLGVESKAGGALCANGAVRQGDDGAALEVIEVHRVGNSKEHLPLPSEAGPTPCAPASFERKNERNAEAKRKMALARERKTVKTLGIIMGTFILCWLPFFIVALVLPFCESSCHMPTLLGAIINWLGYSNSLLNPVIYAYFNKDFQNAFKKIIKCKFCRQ
Define the label as criterion met when Ki is strictly less than 2 µM and as criterion not met in all remaining cases.

Below, 5 compounds whose answers are already recorded.
CCc1cc(Cl)c(OC)c(N2CCNCC2)c1    criterion not met
CCCCN1CCN(c2cccc(CC)c2Cl)CC1    criterion met
CCCCN1CCN(c2cc(CC)cc(Cl)c2OC)CC1    criterion not met
CCc1cccc(N2CCNCC2)c1Cl    criterion met
CCc1cc(Cl)c(OC)c(N2CCN(C)CC2)c1    criterion not met

Here is another compound to look at.
query: # TODO verify Ki < 2 µM strictly for this compound: "CCc1cccc(N2CCN(C)CC2)c1Cl"
result: criterion met

---

Biological target: 5-hydroxytryptamine receptor 1A (Homo sapiens)
Test: Agonist activity at 5-HT1A receptor (unknown origin) by [35S]GTPgammaS binding assay
Format: functional
Design: concentration or dose not given beside the values
Here the recorded Activity is given for each entry.
Respond with the bare value in %.

query: So what does the record say about Activity for "CCc1cccc(N2CCN(CCCCNC(=O)c3cc4ccccc4o3)CC2)c1Cl" ?
result: 99.4

query: What value of Activity has been recorded for this entry: "CCc1cccc(N2CCN(C)CC2)c1Cl"
result: 89

---

# pKi values compiled below
Biological target: D(4) dopamine receptor (Homo sapiens)
Sequence (P21917 whole entry): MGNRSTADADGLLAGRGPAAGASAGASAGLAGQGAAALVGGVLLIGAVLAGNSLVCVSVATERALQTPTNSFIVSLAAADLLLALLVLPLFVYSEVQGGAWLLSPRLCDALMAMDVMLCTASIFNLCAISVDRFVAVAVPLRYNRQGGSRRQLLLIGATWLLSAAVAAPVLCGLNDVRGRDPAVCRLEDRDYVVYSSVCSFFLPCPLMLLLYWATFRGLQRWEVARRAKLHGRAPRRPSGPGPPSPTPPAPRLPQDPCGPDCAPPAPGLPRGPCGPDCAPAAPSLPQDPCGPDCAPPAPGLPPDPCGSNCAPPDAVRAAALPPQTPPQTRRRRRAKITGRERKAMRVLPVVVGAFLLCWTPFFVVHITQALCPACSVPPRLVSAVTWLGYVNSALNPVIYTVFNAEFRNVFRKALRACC
Scale for pKi: -log10 of concentration given in mol/L; no unit attached.

query: What measured pKi goes with "CCCCN1CCN(c2cc(CC)cc(Cl)c2OC)CC1" ?
result: 6.49

query: Quick check: pKi of "CCc1cc(Cl)c(OC)c(N2CCNCC2)c1" ?
result: 5.64

query: For the compound "CCc1cccc(N2CCNCC2)c1Cl" , what pKi is on record?
result: 6.50

query: State the recorded pKi for this entry: "CCc1cccc(N2CCN(C)CC2)c1Cl"
result: 7.05

query: # pKi lookup, item "CCc1cc(Cl)c(OC)c(N2CCN(C)CC2)c1"
result: 6.40

query: // lookup pKi for "CCCCN1CCN(c2cccc(CC)c2Cl)CC1"
result: 7.19

---

Measured Ki (D(3) dopamine receptor (Homo sapiens))
// units = nM; emit number, no label

CCc1cc(Cl)c(OC)c(N2CCN(C)CC2)c1    179
CCc1cccc(N2CCN(C)CC2)c1Cl    13.6

Here is the next item to consider.
query: Record "CCc1cccc(N2CCNCC2)c1Cl" : what is its Ki with D(3) dopamine receptor (Homo sapiens)?
result: 31.1

---

In this section we review reported pIC50 values for a set of compounds.
Molecular target: D(3) dopamine receptor (Homo sapiens, UniProt P35462)
Assay: Antagonist activity at human dopamine D3 receptor expressed in CHO cells assessed as inhibition of quinpirole-stimulated mitogenesis incubated for 16 hrs in presence of [3H]thymidine by scintillation spectrometric analysis
The read-out pIC50 is expressed as -log10 of concentration in moles per litre.

CCc1cc(Cl)c(OC)c(N2CCN(C)CC2)c1    5.74
CCCCN1CCN(c2cccc(CC)c2Cl)CC1    7.20

Attention now turns to another entry.
query: Would you mind telling me what pIC50 value was observed for "CCCCN1CCN(c2cc(CC)cc(Cl)c2OC)CC1" ?
result: 6.03

---

Attribute: pEC50
Biological target: UniProtKB P08908
Assay: Agonist activity at 5-HT1A receptor (unknown origin) by [35S]GTPgammaS binding assay
Format: functional
// scale note: pEC50 = -log10(conc_M); give the bare number

Solved cases below.
CCc1cccc(N2CCN(C)CC2)c1Cl    7.56
CCc1cccc(N2CCNCC2)c1Cl    7.11

query: # get_value(readout='pEC50', item= "CCCCN1CCN(c2cccc(CC)c2Cl)CC1" )
result: 7.32

---

The following compounds are listed with their measured Ratio Ki values.
Organism: Homo sapiens
Experiment: Selectivity ratio of Ki for human dopamine D4.4 receptor to Ki for human dopamine D2L receptor expressed in HEK293 cell membranes
Assay type: cell-based
API doc: respond with a numeric literal and nothing else, no unit.

Field: example entries. Status: answers known.
CCc1cccc(N2CCNCC2)c1Cl    2.3
CCc1cc(Cl)c(OC)c(N2CCN(C)CC2)c1    1.7

query: Can you look up the measured Ratio Ki of "CCCCN1CCN(c2cc(CC)cc(Cl)c2OC)CC1" for me?
result: 11

query: Could you tell me which Ratio Ki is on file for "CCc1cccc(N2CCN(C)CC2)c1Cl" ?
result: 1.5

query: Entry under review: "CCc1cc(Cl)c(OC)c(N2CCNCC2)c1" . Reported Ratio Ki?
result: 3.7

query: If you can, please state the reported Ratio Ki value of "CCCCN1CCN(c2cccc(CC)c2Cl)CC1" .
result: 22

All figures here come from ChEMBL document CHEMBL4428060.
